system: U2OS; assay: Multiplex assay against U2OS; assay type: toxicity, cell-based; settings: human, 24 h, 1 µM, compound concentration 1 uM, replicate 1

>  <Compound>
Cc1cc(NC(=O)NCCN2CCC(O)(Cc3ccccc3)CC2)c2ccccc2n1

>  <Population Healthy Nuclei (%)>
66

$$$$
>  <Compound>
CCCCC[C@H](O)/C=C/[C@H]1[C@H](O)CC(=O)[C@@H]1CCCCCCC(=O)O

>  <Population Healthy Nuclei (%)>
65

$$$$
>  <Compound>
Cc1cc(-c2ccc3c(c2)CC[C@H]3N2CC3(CCN(C(=O)Cc4cn5cc(C)sc5n4)CC3)C2)ncn1

>  <Population Healthy Nuclei (%)>
66

$$$$
>  <Compound>
O=C(NCCNCC(O)COc1ccc(O)cc1)N1CCOCC1.O=C(NCCNCC(O)COc1ccc(O)cc1)N1CCOCC1.O=C(O)/C=C/C(=O)O (centres undefined) [XAMOTEROL FUMARATE]

>  <Population Healthy Nuclei (%)>
68

$$$$

----------
test system: HEK-293T; assay: Multiplex assay against HEK293T; type: toxicity, cell-based; conditions: human, 24 h, 10 µM, compound concentration 10 uM, replicate 2
Measured Total Cell Count, listed per entry for reference.
Reported endpoint: Total Cell Count

>  <Compound>
CCn1c(-c2nc3cc(C(=O)N4CCCC(N)C4)ccc3n2C)cc2ccccc21.Cl (stereo not drawn)

>  <Target system>
HEK-293T

>  <Observed result>
471

$$$$
>  <Compound>
CSc1nc(NC2CCCC2)c([N+](=O)[O-])c(NC2CCCC2)n1

>  <Target system>
HEK-293T

>  <Observed result>
474

$$$$
>  <Compound>
C[C@H](NC(=O)CNC(=O)c1cccc(Cl)c1)c1ccccc1

>  <Target system>
HEK-293T

>  <Observed result>
303

$$$$
>  <Compound>
O=C(NCCNCC(O)COc1ccc(O)cc1)N1CCOCC1.O=C(NCCNCC(O)COc1ccc(O)cc1)N1CCOCC1.O=C(O)/C=C/C(=O)O (stereo not drawn) [XAMOTEROL FUMARATE]

>  <Target system>
HEK-293T

>  <Observed result>
542

$$$$
>  <Compound>
COc1ccc2c(c1OCc1ccccc1)C[C@@H](C(=O)O)N(C(=O)C(c1ccccc1)c1ccccc1)C2

>  <Target system>
HEK-293T

>  <Observed result>
414

$$$$
>  <Compound>
CCCCCCNC(=O)Nc1ccc(S(=O)(=O)Nc2ccc(CCNC[C@H](O)COc3ccc(O)cc3)cc2)cc1

>  <Target system>
HEK-293T

>  <Observed result>
402

$$$$
>  <Compound>
O=C(O)CCC/C=C\CC1C(O)CC(O)C1/C=C/C(O)COc1cccc(Cl)c1 (stereo not drawn)

>  <Target system>
HEK-293T

>  <Observed result>
483

$$$$
>  <Compound>
CN1CCC(C(=O)c2cccc(NC(=O)c3c(F)cc(F)cc3F)n2)CC1

>  <Target system>
HEK-293T

>  <Observed result>
467

$$$$

----------
tested on: HEK-293T; assay: Multiplex assay against HEK293T; format: toxicity, cell-based; settings: human, 24 h, 10 µM, compound concentration 10 uM, replicate 1

>  <Structure string>
CN1CCC(C(=O)c2cccc(NC(=O)c3c(F)cc(F)cc3F)n2)CC1

>  <Unit>
%

>  <Population Fragmented Nuclei (%)>
10

$$$$
>  <Structure string>
CCc1nn2c(C)cc(C)nc2c1Cc1ccc(-c2nnc(C3CCNCC3)o2)cc1

>  <Unit>
%

>  <Population Fragmented Nuclei (%)>
11

$$$$
>  <Structure string>
C=CCN1C[C@H](C(=O)N(CCCN(C)C)C(=O)NCC)C[C@@H]2c3cccc4[nH]cc(c34)C[C@H]21

>  <Unit>
%

>  <Population Fragmented Nuclei (%)>
10

$$$$
>  <Structure string>
Cc1sc2c(c1C)C(c1ccc(Cl)cc1)=N[C@H](CC(=O)OC(C)(C)C)c1nnc(C)n1-2

>  <Unit>
%

>  <Population Fragmented Nuclei (%)>
8

$$$$
>  <Structure string>
O=C(Nc1cc(-c2ccccc2)nn1-c1ccccc1F)c1ccc([N+](=O)[O-])cc1

>  <Unit>
%

>  <Population Fragmented Nuclei (%)>
9

$$$$
>  <Structure string>
C[C@@H]1CC(=O)Nc2cccc(-c3ccc4c(c3)c(-c3cnn(C)c3)nn4C)c2N1

>  <Unit>
%

>  <Population Fragmented Nuclei (%)>
9

$$$$
>  <Structure string>
CSc1nc(NC2CCCC2)c([N+](=O)[O-])c(NC2CCCC2)n1

>  <Unit>
%

>  <Population Fragmented Nuclei (%)>
11

$$$$
>  <Structure string>
C[C@H](NC(=O)CNC(=O)c1cccc(Cl)c1)c1ccccc1

>  <Unit>
%

>  <Population Fragmented Nuclei (%)>
9

$$$$
>  <Structure string>
S=C(NCCCc1c[nH]cn1)NCCCN(Cc1ccc(Cl)c(Cl)c1)c1ccc(Br)cn1

>  <Unit>
%

>  <Population Fragmented Nuclei (%)>
11

$$$$

----------
system: Fibroblast; experiment: Multiplex assay against human fibroblast; type: toxicity, cell-based; conditions: 24 h, 10 µM, compound concentration 10 uM, replicate 2
Measured Population Mitochondria Different-Phenotype (%), listed per entry for reference.
Reported endpoint: Population Mitochondria Different-Phenotype (%)

>  <Compound>
Cc1c(Cc2ccc3ccccc3n2)c2cc(F)ccc2n1CC(=O)O [TIMAPIPRANT]

>  <Observed result>
10

$$$$
>  <Compound>
COc1cc2nc(N3CCN(C(=O)c4ccco4)CC3)nc(N)c2cc1OC.Cl [PRAZOSIN HYDROCHLORIDE]

>  <Observed result>
11

$$$$
>  <Compound>
Cc1cc(-c2ccc3c(c2)CC[C@H]3N2CC3(CCN(C(=O)Cc4cn5cc(C)sc5n4)CC3)C2)ncn1 [PF-5190457]

>  <Observed result>
7

$$$$
>  <Compound>
COc1ccc2[nH]c(I)c(CCNC(C)=O)c2c1 [IODOMELATONIN]

>  <Observed result>
1

$$$$

----------
tested on: U2OS; test: Multiplex assay against U2OS; type: toxicity, cell-based; conditions: human, 48 h, 1 µM, compound concentration 1 uM, replicate 1
Each entry gets No if its Total Cell Count stays under 400, and Yes if its Total Cell Count is 400 or above.

>  <Compound>
Cc1ccc(OCC(O)C(C)NC(C)C)c2c1CCC2.Cl (centres undefined)

>  <Target system>
U2OS

>  <Class label>
No

$$$$
>  <Compound>
Cc1cc(=O)n(C)c2cc(N3C(=O)CC[C@H](NS(=O)(=O)CC(C)C)[C@H]3c3ccc(Cl)cc3)ccc12

>  <Target system>
U2OS

>  <Class label>
Yes

$$$$
>  <Compound>
O=c1ccc2ccc(OCCCCN3CCN(c4cccc5sccc45)CC3)cc2[nH]1

>  <Target system>
U2OS

>  <Class label>
No

$$$$
>  <Compound>
COc1ccc2[nH]c(I)c(CCNC(C)=O)c2c1

>  <Target system>
U2OS

>  <Class label>
Yes

$$$$
>  <Compound>
COc1c(Nc2ccc(S(C)(=O)=O)nc2C)ncnc1OC1CCN(C(=O)OC(C)C)CC1

>  <Target system>
U2OS

>  <Class label>
No

$$$$
>  <Compound>
COCCCN1CCC(NC(=O)c2cc(Cl)c(N)c3c2OCC3)CC1 [PRUCALOPRIDE]

>  <Target system>
U2OS

>  <Class label>
No

$$$$

----------
system: HEK-293T; assay: Multiplex assay against HEK293T; assay type: toxicity, cell-based; conditions: human, 24 h, 1 µM, compound concentration 1 uM, replicate 2
Rule for this label: criterion met means Total Cell Count is less than 400; criterion not met means Total Cell Count is at least 400.

>  <Molecule>
Nc1nc(-c2ccco2)c2cnn(Cc3ccccc3F)c2n1

>  <Class label>
criterion not met

$$$$
>  <Molecule>
OCCCNc1cc(-c2ccnc(Nc3cccc(Cl)c3)n2)ccn1

>  <Class label>
criterion met

$$$$
>  <Molecule>
COc1cc(C(=O)N2CC[C@@H](O)[C@@H](N)C2)cc2nc(-c3cc4ccccc4n3CC3CC3)n(C)c12.Cl

>  <Class label>
criterion met

$$$$
>  <Molecule>
Cc1cc(-c2ccc3c(c2)CC[C@H]3N2CC3(CCN(C(=O)Cc4cn5cc(C)sc5n4)CC3)C2)ncn1 [PF-5190457]

>  <Class label>
criterion met

$$$$
>  <Molecule>
CCCCCCNC(=O)Nc1ccc(S(=O)(=O)Nc2ccc(CCNC[C@H](O)COc3ccc(O)cc3)cc2)cc1 [L-755507]

>  <Class label>
criterion not met

$$$$
>  <Molecule>
O=c1ccc2ccc(OCCCCN3CCN(c4cccc5sccc45)CC3)cc2[nH]1 [BREXPIPRAZOLE]

>  <Class label>
criterion not met

$$$$
>  <Molecule>
CCC(=O)OCC(=O)[C@@]1(OC(=O)CC)[C@@H](C)C[C@H]2[C@@H]3CCC4=CC(=O)C=C[C@]4(C)[C@@]3(Cl)[C@@H](O)C[C@@]21C [BECLOMETHASONE DIPROPIONATE]

>  <Class label>
criterion not met

$$$$
>  <Molecule>
COc1cc2nc(N3CCN(C(=O)c4ccco4)CC3)nc(N)c2cc1OC.Cl [PRAZOSIN HYDROCHLORIDE]

>  <Class label>
criterion met

$$$$
>  <Molecule>
COc1ccc2c(c1OCc1ccccc1)C[C@@H](C(=O)O)N(C(=O)C(c1ccccc1)c1ccccc1)C2 [OLODANRIGAN]

>  <Class label>
criterion not met

$$$$
>  <Molecule>
CN1CCN2c3ccccc3Cc3ccccc3C2C1.Cl (configuration not stated) [MIANSERIN HYDROCHLORIDE]

>  <Class label>
criterion not met

$$$$
>  <Molecule>
COc1c(Nc2ccc(S(C)(=O)=O)nc2C)ncnc1OC1CCN(C(=O)OC(C)C)CC1 [ADP-597]

>  <Class label>
criterion not met

$$$$
>  <Molecule>
Cc1ccc(OCC(O)C(C)NC(C)C)c2c1CCC2.Cl (configuration not stated)

>  <Class label>
criterion not met

$$$$
>  <Molecule>
CCn1c(-c2nc3cc(C(=O)N4CCCC(N)C4)ccc3n2C)cc2ccccc21.Cl (configuration not stated)

>  <Class label>
criterion met

$$$$
>  <Molecule>
Cc1cc(=O)n(C)c2cc(N3C(=O)CC[C@H](NS(=O)(=O)CC(C)C)[C@H]3c3ccc(Cl)cc3)ccc12

>  <Class label>
criterion met

$$$$
>  <Molecule>
CN(C)C/C=C/C(=O)Nc1ccc(C(=O)N2CCCC(Nc3ncc(Cl)c(-c4c[nH]c5ccccc45)n3)C2)cc1 (configuration not stated)

>  <Class label>
criterion met

$$$$
>  <Molecule>
CN1CCN(c2ccc(Nc3c4ccccc4nc4ccccc34)cc2)CC1.Cl.Cl.O

>  <Class label>
criterion met

$$$$
